# Test system: BT-549 breast
# test method notes: NCI tumour cell line growth inhibition, 48 h
# TGI per record follows

Some solved cases for reference:
Q: Look up TGI with BT-549 breast for this compound: `CCN(Cc1ccccc1OC)c1ccc(CO)c(Cl)c1`
Result: 26 µM

Q: Give the reported TGI for OC1COC(n2c3ccc(Br)cc3c3ccc4c5ccccc5[nH]c4c32)C(O)C1O (stereo not given) (system: BT-549 breast).
Result: 26.3 µM

New cases:
Q: Param readout = TGI; param system = BT-549 breast; param query = `COc1ccc(-c2cc(-c3cc(OC)c(OC)c(OC)c3)cc(-c3cc4ccccc4oc3=O)n2)cc1` ; response: value
Result: 27.8 µM

Q: Give the reported TGI for `CC[n+]1c(/C=C/c2ccc(N(CCCl)CCCl)cc2)ccc2cc(NC(=O)/C=C/c3ccccc3)ccc21` (system: BT-549 breast).
Result: 1.58 µM

Q: Short answer please: TGI, BT-549 breast, entry `CN(CCOc1ccc(C#N)cc1)CCOc1ccc(C#N)cc1`
Result: > 100 µM

---

# Test system: MCF7 breast
# test method notes: NCI tumour cell line growth inhibition, 48 h; in the data active = GI50 below about 0.43 µM; inactive = the rest
Just give me one of these, please: 1 (yes) (active), 0 (no) (inactive)

Q: For `COc1ccc(-c2cn(-c3ccccc3)c(-c3ccccc3)n2)cc1OC` , what call appears in the results of this test?
Result: 0 (no)

Next:
Q: # outcome recorded in this test, key = `CCN(Cc1ccccc1OC)c1ccc(CO)c(Cl)c1`
Result: 0 (no)

Q: Dear all, I need the recorded test outcome for `CN(C)C(=S)N=Nc1c(O)[nH]c2ccccc12` , thank you.
Result: 0 (no)

Q: Record lookup: outcome of this test for C[C@@H]1COCCN1c1cc(C2(S(C)(=N)=O)CC2)nc(-c2ccnc3[nH]ccc23)n1 (some centres undefined) ?
Result: 0 (no)

Q: // param item: `COc1cc(-c2cn(-c3ccc(Cl)cc3)c(C)c2C(=O)C(F)(F)F)cc(OC)c1OC` ; yields the recorded call
Result: 0 (no)

Q: Dear colleague, could you share the recorded outcome for `COc1cc[nH]c1/C=C1\C(=O)Nc2ccc(F)c(I)c21` when you have a moment?
Result: 0 (no)

Q: In this assay, the call recorded for `C=C1C(=O)O[C@H]2[C@H]1CC/C(COC(=O)N1CCC[C@H]1C(=O)Nc1ccc(OC)c(C(N)=O)c1O)=C\CC[C@@]1(C)O[C@@H]21` was what?
Result: 0 (no)

Q: Assay result, entry CC1OC2CC(=O)OC2C2=C1C(=O)c1c(O)c3c(c(O)c1C2=O)C1CC(O)C3(O)C(C)O1 (centres undefined) — outcome?
Result: 1 (yes)

Q: Which outcome was entered for the compound `Clc1nc(Cl)c2c(ncn2C/C=C\Cn2cnc3c(Cl)nc(Cl)nc32)n1` in this test?
Result: 0 (no)

---

# Test system: SNB-19 CNS
# test method notes: NCI tumour cell line growth inhibition, 48 h; in the data active = GI50 below about 0.43 µM; inactive = the rest
Allowed answers: active, inactive

Q: Query: recorded result category for `Fc1ccc2[nH]c3c(NCCCN4CCOCC4)ncnc3c2c1` in this test
Result: inactive

Q: How did this test come out for C[C@@H]1COCCN1c1cc(C2(S(C)(=N)=O)CC2)nc(-c2ccnc3[nH]ccc23)n1 (some centres undefined) ?
Result: inactive

Q: How did this test come out for COC(=O)CNC(=O)[C@@H](OC)[C@@H]1Cc2cc3cc(OC4CC(OC5CC(O)C(O)C(C)O5)C(O)C(C)O4)c(C)c(O)c3c(O)c2C(=O)[C@H]1OC1CC(OC2CC(OC3CC(C)(O)C(O)C(C)O3)C(O)C(C)O2)C(O)C(C)O1 (some centres undefined) ?
Result: active

Q: Which outcome was assigned to C=C1CC[C@@H]2[C@](C)(COC(C)=O)[C@H](OC(C)=O)CC[C@@]2(C)[C@@H]1CC(Nc1ccc(S(=O)(=O)Nc2nccc(C)n2)cc1)C1=CCOC1=O (some centres undefined) in this test?
Result: inactive

---

Recorded TGI values for a group of compounds are listed next.
# Tested on: MDA-MB-231 breast
# test method notes: NCI tumour cell line growth inhibition, 48 h

Solved cases below.
Q: Quick one: TGI for `O=c1[nH]nc(Cc2ccccc2)n1Nc1ccccc1` ?
Result: > 100 µM

Q: Data request, read-out TGI, for `COc1cc(Nc2nc(N[C@H]3CCCC[C@@H]3N)nc3cc[nH]c(=O)c23)cc(OC)c1`
Result: 9.35 µM

---
Q: Bench note: what TGI did `C[C@@H]1CN(CC(=O)N2CC(C)(C)c3nc(CO)c(Cc4ccc(F)cc4)cc32)[C@@H](CN2CCOC[C@H]2C)CN1` show?
Result: 21.8 µM

Q: Look up TGI: `CCOc1ccc(NCc2cc(OC)c(OC)c(OC)c2)cc1`
Result: > 100 µM

Q: Please report the recorded TGI for COc1cccc(NC(=O)CC(=O)N2N=C(C)C(N=Nc3ccc(S(=O)(=O)c4ccc(N=NC5C(=O)N(C(=O)CC(=O)Nc6cccc(OC)c6)N=C5C)cc4)cc3)C2=O)c1 (stereo not drawn) .
Result: > 100 µM

Q: May I ask what TGI has been recorded for `C(=C\C(SCc1ccccc1)SCc1ccccc1)/c1ccccc1` ?
Result: > 10 µM

Q: Which measured TGI value corresponds to CC(=O)OCC1=C(C)C(OC(=O)C(OC(C)=O)[C@@H](NC(=O)c2ccccc2)c2ccccc2)CCC1(C)C (stereo partly drawn) ?
Result: > 100 µM

Q: For the compound shown here, COC(=O)CNC(=O)[C@@H](OC)[C@@H]1Cc2cc3cc(OC4CC(OC5CC(O)C(O)C(C)O5)C(O)C(C)O4)c(C)c(O)c3c(O)c2C(=O)[C@H]1OC1CC(OC2CC(OC3CC(C)(O)C(O)C(C)O3)C(O)C(C)O2)C(O)C(C)O1 (stereo partly drawn) , give the reported TGI.
Result: > 50 µM

---

Documented GI50 across a set of compounds
# Test system: SK-MEL-2 melanoma
# test method notes: NCI tumour cell line growth inhibition, 48 h

Examples with answers:
Q: Would you mind telling me what GI50 value was observed for CC(=O)OCC1OC(n2ccc(=O)[nH]c2=O)C(OC(C)=O)C1OC(C)=O (stereo unspecified) ?
Result: > 100 µM

Q: State the recorded GI50 for this entry: `CO/N=C(\C)c1ccc(Nc2cc(-c3ccccc3)nc3c(O)cccc23)cc1`
Result: 28 µM

Q: Consider the compound `CC(=O)[O-].CC(=O)[O-].[NH2-].[Pt+2].c1ccc2cnccc2c1` and give its measured GI50.
Result: 36 µM

Q: What does the data say about its GI50? Entry: `NC(C(=O)[O-])C(=O)[O-].NC1CCCCC1N.[Pt+4]`
Result: > 100 µM

Q: Fill blank: measured GI50 of the compound `C#CC[C@@H]1C[C@]2(C)[C@H]3CC=C4[C@H]5CC(C)(C)CC[C@]5(C(=O)NCCCCN)CC[C@@]4(C)[C@]3(C)CC[C@H]2C(C)(C)[C@H]1OC(C)=O` is ____.
Result: 1.78 µM

Continuing:
Q: # get_value(readout='GI50', item= CC1OC2CC(=O)OC2C2=C1C(=O)c1c(O)c3c(c(O)c1C2=O)C1CC(O)C3(O)C(C)O1 (stereo unspecified) )
Result: 0.701 µM

---

Form field: TGI (one value per entry).
# System: HCT-15 colon
# test method notes: NCI tumour cell line growth inhibition, 48 h

Example entries and their recorded answers appear below.
Q: Form field: reported TGI of `Cc1cccc(NC(=S)N=Nc2c(O)[nH]c3ccccc23)c1`
Result: > 100 µM

Q: Record request: TGI value, item `NC(=O)N1N=C2c3ccccc3SC[C@H]2[C@@H]1c1ccccc1`
Result: > 100 µM

Q: Entry COc1ccc(CC2NC(=O)/C=C/CC(C(C)C3OC3c3ccccc3)OC(=O)C(CC(C)C)OC(=O)C(C)CNC2=O)cc1Cl (stereo not given) has what TGI?
Result: > 0.1 µM

Q: GET /values?readout=TGI&item= `O=S1C2=C(Cc3ccccc3)C(Cc3ccccc3)=C1CCc1cccc(c1)CC2`
Result: 30.5 µM

More entries:
Q: Item under review: `Nc1nc2c(c(=O)[nH]1)CN(c1ccc(S(N)(=O)=O)cc1)CN2` . Reported TGI?
Result: > 100 µM

---

Each record here notes measured GI50.
# Test system: HCT-116 colon
# test method notes: NCI tumour cell line growth inhibition, 48 h

Q: Notebook entry, HCT-116 colon assay: GI50 of CC(=O)O[C@@H]1CC2C(C)(C)CCCC2(C)C2=C1C(=O)C(C(C)C)=CC2=O (stereo not given in full) = ?
Result: 467 nM

Q: API: value(readout=GI50, system=HCT-116 colon) for record `CC(=O)[O-].CC(=O)[O-].[NH2-].[Pt+2].c1ccc2cnccc2c1`
Result: 15100 nM

Q: # get_value(readout= GI50, system= HCT-116 colon) for `Oc1ccc(CCCCCCc2ccc(O)cc2)cc1`
Result: 9680 nM

New cases:
Q: Please provide the recorded GI50 for `Cc1nc2sc(C(=O)Nc3ccccc3)c(N)c2cc1C(=O)/C=C/c1ccccc1` , tested on HCT-116 colon.
Result: 1460 nM

Q: Request - read-out GI50 | tested on HCT-116 colon | compound `CCCCN(Cc1ccc(F)cc1)c1ccc(CO)c(Cl)c1`
Result: 906 nM

Q: For the record `CN(C)C(=S)N=Nc1c(O)[nH]c2ccccc12` , what value of GI50 is listed for HCT-116 colon?
Result: 303 nM

Q: Record lookup: for HCT-116 colon, what GI50 belongs to `CC(C)(C)c1ccc(S(=O)(=O)N[C@H]2CC[C@H]3[C@@H]4CCc5cc(OS(=O)(=O)O)ccc5[C@H]4CC[C@]23C)cc1` ?
Result: 1790 nM

Q: Query the reported GI50 for HCT-116 colon; item: COc1ccc2c(c1)OC(N(C(C)=O)C(C)=O)=C(C#N)C2c1ccc(F)cc1 (stereo not given)
Result: 1260 nM

Q: Record lookup: for HCT-116 colon, what GI50 belongs to `C[C@@H]1CN(CC(=O)N2CC(C)(C)c3nc(CO)c(Cc4ccc(F)cc4)cc32)[C@@H](CN2CCOC[C@H]2C)CN1` ?
Result: 36900 nM

Q: Fill in the recorded GI50 for this compound, with HCT-116 colon as test system: CC(CNC(Cc1ccccc1)c1ccccc1)NC(Cc1ccccc1)c1ccccc1 (stereo not given)
Result: 1370 nM
